molecular target: HBV polymerase (Hepatitis B virus genotype D subtype ayw, UniProt P03156); construct: made in house; host or cells: E. coli; experiment: Inhibitory activities against HBV polymerase (reverse transcriptase activity) in vitro; assay type: biochemical; details: 0.1 μg/ml; read-out: Inhibitory activity of HBV-RT (%)
Sequence (P03156 whole entry): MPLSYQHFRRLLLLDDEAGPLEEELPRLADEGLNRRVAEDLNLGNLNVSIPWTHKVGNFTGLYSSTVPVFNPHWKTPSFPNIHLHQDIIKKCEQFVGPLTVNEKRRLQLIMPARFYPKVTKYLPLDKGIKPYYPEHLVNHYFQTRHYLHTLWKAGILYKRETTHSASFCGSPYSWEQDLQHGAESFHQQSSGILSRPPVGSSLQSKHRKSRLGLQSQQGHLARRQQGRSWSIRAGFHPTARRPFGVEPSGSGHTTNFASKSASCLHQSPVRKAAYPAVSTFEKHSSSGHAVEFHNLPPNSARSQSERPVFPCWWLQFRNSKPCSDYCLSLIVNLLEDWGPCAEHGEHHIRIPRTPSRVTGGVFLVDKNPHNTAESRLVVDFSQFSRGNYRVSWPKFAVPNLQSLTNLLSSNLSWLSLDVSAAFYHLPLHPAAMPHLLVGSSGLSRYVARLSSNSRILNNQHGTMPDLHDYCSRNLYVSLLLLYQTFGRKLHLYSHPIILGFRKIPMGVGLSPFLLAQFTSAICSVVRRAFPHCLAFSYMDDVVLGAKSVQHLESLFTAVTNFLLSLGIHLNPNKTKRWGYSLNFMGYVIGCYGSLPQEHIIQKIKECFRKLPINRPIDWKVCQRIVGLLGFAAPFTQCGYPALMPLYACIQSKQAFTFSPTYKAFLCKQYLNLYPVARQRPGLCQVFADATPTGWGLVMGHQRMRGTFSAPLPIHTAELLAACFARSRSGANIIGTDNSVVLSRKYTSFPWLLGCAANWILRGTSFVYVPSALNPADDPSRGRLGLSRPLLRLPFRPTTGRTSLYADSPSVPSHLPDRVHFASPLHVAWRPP
measured.quantity: inhibition at 0.1 µg/mL (%)

{"compound": "COCCN(CCOC)C(=O)c1ccc(C(=O)N2CCN(c3ncccc3NC(C)C)CC2)nc1", "value": 52}
{"compound": "CC(C)Nc1cccnc1N1CCN(C(=O)c2ccc(C(=O)NC3CC3)cn2)CC1", "value": 51}
{"compound": "COCCCNC(=O)c1ccc(C(=O)N2CCN(CCO)CC2)nc1", "value": 60}
{"compound": "CC(C)NC(=O)c1ccc(C(=O)N2CCN(c3ncccc3NC(C)C)CC2)nc1", "value": 51}
{"compound": "CC(C)Nc1cccnc1N1CCN(C(=O)c2ccc(C(=O)NC3CCSC3=O)cn2)CC1 (stereo not drawn)", "value": 53}
{"compound": "COCCN(CCOC)C(=O)c1ccc(C(=O)N2CCN(CCO)CC2)nc1", "value": 49}
{"compound": "CC(C)Nc1cccnc1N1CCN(C(=O)c2ccc(C(=O)NCc3ccco3)cn2)CC1", "value": 63}
{"compound": "CC(C)Nc1cccnc1N1CCN(C(=O)c2ccc(C(=O)NCc3ccncc3)cn2)CC1", "value": 65}
{"compound": "COCCNC(=O)c1ccc(C(=O)N2CCN(c3ncccc3NC(C)C)CC2)nc1", "value": 68}
{"compound": "CC(C)Nc1cccnc1N1CCN(C(=O)c2ccc(C(=O)NCc3cccnc3)cn2)CC1", "value": 53}
{"compound": "COC(CNC(=O)c1ccc(C(=O)N2CCN(CCO)CC2)nc1)OC", "value": 63}
{"compound": "CC(C)CNc1cccnc1N1CCN(C(=O)c2ccc(C(=O)NC(C)(C)CO)cn2)CC1", "value": 71}
{"compound": "CC(C)Nc1cccnc1N1CCN(C(=O)c2ccc(C(=O)NCCCn3ccnc3)cn2)CC1", "value": 72}
{"compound": "CC[C@H](CO)NC(=O)c1ccc(C(=O)N2CCN(c3ncccc3NC(C)C)CC2)nc1", "value": 64}
{"compound": "COCCCNC(=O)c1ccc(C(=O)N2CCN(c3ncccc3NCC(C)C)CC2)nc1", "value": 51}
{"compound": "CCNC(=O)c1ccc(C(=O)N2CCN(CCO)CC2)nc1", "value": 50}
{"compound": "COC(CNC(=O)c1ccc(C(=O)N2CCN(c3ncccc3NC(C)C)CC2)nc1)OC", "value": 65}
{"compound": "COc1ccc(NC(=O)c2ccc(C(=O)N3CCN(c4ncccc4NC(C)C)CC3)nc2)cn1", "value": 70}

----------
Target: HBV polymerase (Hepatitis B virus genotype D subtype ayw, UniProt P03156)
Construct: made in house; host or cells: E. coli
Assay: Inhibitory activities against HBV polymerase (reverse transcriptase activity) in vitro
Type: biochemical
Settings: 0.1 μg/ml; read-out: Inhibitory activity of HBV-RT (%)
From the text: Experiment 1:Inhibitory Activities Against HBV Polymerase in vitro Recently, the inventors of the present invention have produced a recombinant HBV polymerase that is expressed from E.coli transformant, measured its enzyme activity and filed patent applications threrof [Korean Pat. Appl. Nos. 94-3918 and 96-33998]. The inventors have also established a method of measuring the reverse transcriptase activity of HBV polymerase in vitro. […]
So basically: inhibition at 0.1 µg/mL at 60% or higher? That is 1. Lower than 60%? That is 0.

{"smiles.data": "CC(C)Nc1cccnc1N1CCN(C(=O)c2ccc(C(=O)NC(C)(C)C)cn2)CC1", "label.class": 1}
{"smiles.data": "CC(C)CNc1cccnc1N1CCN(C(=O)c2ccc(C(=O)Nc3ncccc3O)cn2)CC1", "label.class": 0}
{"smiles.data": "CC(C)Nc1cccnc1N1CCN(C(=O)c2ccc(C(=O)Nc3cnccn3)cn2)CC1", "label.class": 0}
{"smiles.data": "CCNc1cccnc1N1CCN(C(=O)c2ccc(C(=O)NCCOC)cn2)CC1", "label.class": 0}
{"smiles.data": "Cc1cc(NC(=O)c2ccc(C(=O)N3CCN(c4ncccc4NC(C)C)CC3)nc2)n[nH]1", "label.class": 0}
{"smiles.data": "CCNc1cccnc1N1CCN(C(=O)c2ccc(C(=O)NC(C)C)cn2)CC1", "label.class": 1}
{"smiles.data": "CCNc1cccnc1N1CCN(C(=O)c2ccc(C(=O)NC(C)(C)CO)cn2)CC1", "label.class": 0}
{"smiles.data": "CC(C)Nc1cccnc1N1CCN(C(=O)c2ccc(C(=O)NCCOCCO)cn2)CC1", "label.class": 1}

----------
target: HBV polymerase (Hepatitis B virus genotype D subtype ayw, UniProt P03156); construct: made in house; host or cells: E. coli; assay: Inhibitory activities against HBV polymerase (reverse transcriptase activity) in vitro; type: biochemical; settings: 1 μg/ml; read-out: Inhibitory activity of HBV-RT (%)
So basically: inhibition at 1 µg/mL at 80% or higher? That is true. Lower than 80%? That is false.

{"molecule": "COCCCNC(=O)c1ccc(C(=O)N2CCN(c3ncccc3NCC(C)C)CC2)nc1 [Exam. 47]", "label.class": "false"}
{"molecule": "CC(C)Nc1cccnc1N1CCN(C(=O)c2ccc(C(=O)NCCc3ccccn3)cn2)CC1 [Exam. 82]", "label.class": "false"}
{"molecule": "CCN(CC)C(=O)c1ccc(C(=O)N2CCN(c3ncccc3NC(C)C)CC2)nc1 [Exam. 33]", "label.class": "false"}
{"molecule": "CCNc1cccnc1N1CCN(C(=O)c2ccc(C(=O)NCCOC)cn2)CC1 [Exam. 40]", "label.class": "false"}
{"molecule": "CC(C)CNc1cccnc1N1CCN(C(=O)c2ccc(C(=O)NC(C)(C)CO)cn2)CC1 [Exam. 23]", "label.class": "true"}
{"molecule": "CC(C)Nc1cccnc1N1CCN(C(=O)c2ccc(C(=O)NC3CCCC3)cn2)CC1 [Exam. 37]", "label.class": "false"}
{"molecule": "CC(C)Nc1cccnc1N1CCN(C(=O)c2ccc(C(=O)N[C@H](C)CO)cn2)CC1 [Exam. 3]", "label.class": "false"}
{"molecule": "COCCNC(=O)c1ccc(C(=O)N2CCN(c3ncccc3NCC(C)C)CC2)nc1 [Exam. 41]", "label.class": "true"}
{"molecule": "CC(C)Nc1cccnc1N1CCN(C(=O)c2ccc(C(=O)N(C)CC3OCCO3)cn2)CC1 [Exam. 52]", "label.class": "false"}
{"molecule": "CC(C)Nc1cccnc1N1CCN(C(=O)c2ccc(C(=O)NC(CO)CO)cn2)CC1 [Exam. 13]", "label.class": "false"}
{"molecule": "CC(C)Nc1cccnc1N1CCN(C(=O)c2ccc(C(=O)Nc3ccccn3)cn2)CC1 [Exam. 70]", "label.class": "false"}
{"molecule": "O=C(NCc1ccco1)c1ccc(C(=O)N2CCN(CCO)CC2)nc1 [Exam. 103]", "label.class": "false"}
{"molecule": "CC(C)CNc1cccnc1N1CCN(C(=O)c2ccc(C(=O)NC3CC3)cn2)CC1 [Exam. 36]", "label.class": "true"}
{"molecule": "COCC(C)NC(=O)c1ccc(C(=O)N2CCN(c3ncccc3NC(C)C)CC2)nc1 (stereo not drawn) [Exam. 43]", "label.class": "false"}
{"molecule": "COCCCNC(=O)c1ccc(C(=O)N2CCN(CCO)CC2)nc1 [Exam. 99]", "label.class": "false"}

----------
target: HBV polymerase (Hepatitis B virus genotype D subtype ayw); construct: made in house; host or cells: E. coli; test: Inhibitory activities against HBV polymerase (reverse transcriptase activity) in vitro; format: biochemical; details: 1 μg/ml; read-out: Inhibitory activity of HBV-RT (%)
So basically: inhibition at 1 µg/mL at 70% or higher? That is label 1. Lower than 70%? That is label 0.

{"molecule": "COC(CN(C)C(=O)c1ccc(C(=O)N2CCN(c3ncccc3NC(C)C)CC2)nc1)OC [Exam. 50]", "target.under.test": "HBV polymerase (Hepatitis B virus genotype D subtype ayw)", "label.class": "label 0"}
{"molecule": "CC(C)CNc1cccnc1N1CCN(C(=O)c2ccc(C(=O)NCCCn3ccnc3)cn2)CC1 [Exam. 84]", "target.under.test": "HBV polymerase (Hepatitis B virus genotype D subtype ayw)", "label.class": "label 1"}
{"molecule": "CCN(CCO)C(=O)c1ccc(C(=O)N2CCN(c3ncccc3NC(C)C)CC2)nc1 [Exam. 14]", "target.under.test": "HBV polymerase (Hepatitis B virus genotype D subtype ayw)", "label.class": "label 0"}
{"molecule": "CCNc1cccnc1N1CCN(C(=O)c2ccc(C(=O)NCCO)cn2)CC1 [Exam. 18]", "target.under.test": "HBV polymerase (Hepatitis B virus genotype D subtype ayw)", "label.class": "label 1"}
{"molecule": "CC(C)Nc1cccnc1N1CCN(C(=O)c2ccc(C(=O)Nc3nncs3)cn2)CC1 [Exam. 69]", "target.under.test": "HBV polymerase (Hepatitis B virus genotype D subtype ayw)", "label.class": "label 0"}
